Numbers sourced from ChEMBL document CHEMBL3507680.

Please respond with reported cytotoxicity at 70.5 h for every item in the list.
- experimental-protocol: Human HepG2 cell viability assay in 384 well format
- Assay type: toxicity, cell-based
- Set-up: dose 125 nL, time 70.5 hour; concentration not given beside the values
- measurement-conditions: HepG2 cells, read-out: Inhibition
Give the value, in units of %, as a plain number.

Inquiry: Consider the compound O=C(CCCc1nnc(-c2ccccc2)o1)N1CCN(CCO)CC1 and give its measured cytotoxicity at 70.5 h.
Reply text: -32.4

Inquiry: // returns reported cytotoxicity at 70.5 h for input Cn1c(N2CCOCC2)nc2cc(C(=O)NCC(F)(F)F)ccc21
Reply text: -9.13

Inquiry: What value of cytotoxicity at 70.5 h has been reported for the following compound? Cc1cnn(CC2CCCN2CC(=O)N(C)CCC#N)c1 (configuration not stated)
Reply text: -7.49

Inquiry: Look at this compound and give its reported cytotoxicity at 70.5 h. CC(C)c1n[nH]c(C2CN(CCCS(C)(=O)=O)CCO2)n1 (configuration not stated)
Reply text: -4.2

Inquiry: Any idea what cytotoxicity at 70.5 h was measured for O=C1CCC(c2nc(C3CCNCC3)no2)N1 (configuration not stated) ?
Reply text: -6.87

Inquiry: I'd like to know its cytotoxicity at 70.5 h. The compound in question is COc1ccc(C#N)cc1CSCCN1CCOCC1
Reply text: -9.88

Inquiry: Sample CCC(=O)N1C[C@@H]2CCN(c3cnccn3)C[C@@H]2C1 — what was its cytotoxicity at 70.5 h?
Reply text: 35.4

Inquiry: Which value of cytotoxicity at 70.5 h has been reported for CCc1nccn1CC(=O)N1C[C@H]2CC[C@@H]1CN(S(=O)(=O)N(C)C)C2 in the records?
Reply text: 1.78

Inquiry: Which measured cytotoxicity at 70.5 h value corresponds to O=C1N(c2cccc(F)c2)Cc2nc(=O)[nH]n21 ?
Reply text: -7.69

Inquiry: Which value of cytotoxicity at 70.5 h has been reported for Cc1cc(C(=O)NCc2cccnc2N(C)C)c(C)o1 in the records?
Reply text: 14.3

Inquiry: I have this compound here, Cc1noc(C)c1CNC(=O)N1CCN(CC2CC2)CC1 , and I need its recorded cytotoxicity at 70.5 h.
Reply text: -5.87

Inquiry: cytotoxicity at 70.5 h lookup needed for CCn1c(CN(C)C)nnc1C1CCN(Cc2ccccn2)CC1 , thanks.
Reply text: 20.6

Inquiry: Bench note: what cytotoxicity at 70.5 h did COCCCN(C(=O)c1ccc(-n2ccnc2)cc1)C1CCN(C)CC1 show?
Reply text: 35.1

Inquiry: What measured cytotoxicity at 70.5 h goes with CC(C)CN1CC(c2nc(C3CC3)n[nH]2)CC1=O (configuration not stated) ?
Reply text: -9.82

Inquiry: Return reported cytotoxicity at 70.5 h; argument: c1cncc(N2CCCn3nnc(COCC4CC4)c3C2)c1
Reply text: -7.98

Inquiry: Which cytotoxicity at 70.5 h value belongs to Cc1cccc(CN2CC[C@H]3C[C@H](C)O[C@@H]3C2)n1 ?
Reply text: -4.58

Inquiry: // returns reported cytotoxicity at 70.5 h for input N#Cc1ccnc(N2CCN(C(=O)NC3CCS(=O)(=O)C3)CC2)c1 (configuration not stated)
Reply text: -7.36

Inquiry: Give the measured cytotoxicity at 70.5 h of O=C(c1ccc2c(c1)OCO2)N1CCN(c2cnccn2)CC1 .
Reply text: -3.98

Inquiry: # lookup: cytotoxicity at 70.5 h of N#Cc1cccc(S(=O)(=O)NC2CCN(Cc3ccccc3)C2=O)c1 (configuration not stated)
Reply text: -2.45

Inquiry: Requested field: cytotoxicity at 70.5 h. Item: CCOc1cccc(C(C)NCc2c(C)nn(C)c2N(C)C)c1 (configuration not stated)
Reply text: -8.02

Inquiry: What value of cytotoxicity at 70.5 h has been recorded for this entry: CNC(=O)C(C)(C)NC(=O)c1cc(COc2cccc(C(C)=O)c2)[nH]n1
Reply text: -6.29

Inquiry: Can you share its cytotoxicity at 70.5 h? I mean this compound: Cc1n[nH]c(C)c1NC(=O)C1CCCN(C(=O)NCC(C)C)C1 (configuration not stated)
Reply text: -5.82
